Reference for the values: patent US20240400614A1

EXPERIMENTAL SYSTEM: MMP-2 (Homo sapiens, UniProt P08253)
Construct: purchased SIGMA PF023
Sequence (P08253 110-660): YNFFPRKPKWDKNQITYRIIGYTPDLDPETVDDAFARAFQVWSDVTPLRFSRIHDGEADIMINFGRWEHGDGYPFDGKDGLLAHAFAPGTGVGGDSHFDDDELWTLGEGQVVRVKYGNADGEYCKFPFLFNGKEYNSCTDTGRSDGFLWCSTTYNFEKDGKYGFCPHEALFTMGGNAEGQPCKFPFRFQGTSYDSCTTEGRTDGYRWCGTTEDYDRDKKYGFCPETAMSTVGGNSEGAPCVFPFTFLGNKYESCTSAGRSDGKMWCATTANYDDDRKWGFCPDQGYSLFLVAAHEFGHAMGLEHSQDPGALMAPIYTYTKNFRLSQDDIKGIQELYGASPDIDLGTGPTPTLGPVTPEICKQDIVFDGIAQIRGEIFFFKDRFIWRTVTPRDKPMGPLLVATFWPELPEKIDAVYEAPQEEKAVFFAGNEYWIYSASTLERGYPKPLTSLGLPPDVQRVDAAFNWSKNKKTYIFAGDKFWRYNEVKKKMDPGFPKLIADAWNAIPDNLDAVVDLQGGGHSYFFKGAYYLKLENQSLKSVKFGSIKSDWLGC
PROCEDURE DETAILS: FRET peptide cleavage efficiency with MMP-2
Assay type: biochemical
CONDITIONS USED: t = 120 min; standard conditions (Table 8)
Square brackets hold non-standard residues; d marks the D form. Ends that are not written are not given here. Tyr(3-NO2) = N[C@@H](Cc1ccc(O)c([N+](=O)[O-])c1)C(=O)O; Nle = CCCC[C@H](N)C(=O)O; 2Abz = Nc1ccccc1C(=O)O
Below is a list of entries, each paired with its recorded % cleavage MMP-2 t = 120 min value.
Enter your answer as a number in %; do not include the unit.

Worked set:
RGRKPYMLQG ([2Abz]RGRKPYMLQG[Tyr(3-NO2)]-NH2) [LNK035]	91
SGRVAPY-Nle-LQG ([2Abz]SGRVAPY[Nle]LQG[Tyr(3-NO2)]-NH2) [LNK043]	91
SGRVAPQPLVD (not fully specified (N-terminus, C-terminus)) [LNK046]	88

From here, focus on the item given below.
Query: For MMP-2 (Homo sapiens, UniProt P08253), provide % cleavage MMP-2 t = 120 min of RGRKSPYMLQG ([2Abz]RGRKSPYMLQG[Tyr(3-NO2)]-NH2) [LNK037] please.
Response: 89

====

// % cleavage MMP-9 t = 60 min lookup, one value per entry
EXPERIMENTAL SYSTEM: MMP-9 (Homo sapiens, UniProt P14780)
Construct: purchased SIGMA PF024
Sequence (P14780 94-707): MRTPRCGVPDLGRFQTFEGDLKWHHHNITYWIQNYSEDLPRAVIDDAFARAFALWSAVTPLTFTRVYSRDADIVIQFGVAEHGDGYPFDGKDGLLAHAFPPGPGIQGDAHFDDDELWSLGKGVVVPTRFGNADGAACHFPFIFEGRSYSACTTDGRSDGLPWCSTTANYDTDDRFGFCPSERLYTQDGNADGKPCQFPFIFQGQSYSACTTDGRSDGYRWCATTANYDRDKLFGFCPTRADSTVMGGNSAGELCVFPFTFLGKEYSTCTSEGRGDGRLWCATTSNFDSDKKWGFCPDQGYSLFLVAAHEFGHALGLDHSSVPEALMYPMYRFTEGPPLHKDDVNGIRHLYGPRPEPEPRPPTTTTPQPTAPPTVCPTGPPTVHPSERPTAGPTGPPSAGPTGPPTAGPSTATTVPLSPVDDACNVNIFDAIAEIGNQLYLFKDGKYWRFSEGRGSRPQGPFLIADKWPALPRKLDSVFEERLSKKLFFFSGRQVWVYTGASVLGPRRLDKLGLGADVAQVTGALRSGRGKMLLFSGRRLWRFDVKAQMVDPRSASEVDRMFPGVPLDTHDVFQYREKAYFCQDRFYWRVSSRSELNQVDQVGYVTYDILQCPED
PROCEDURE DETAILS: FRET peptide cleavage efficiency with MMP-9 (standard pH 7.5; also pH 6.5)
Format: biochemical
CONDITIONS USED: t = 60 min (Table 9)
Square brackets hold non-standard residues; d marks the D form. Ends that are not written are not given here. Tyr(3-NO2) = N[C@@H](Cc1ccc(O)c([N+](=O)[O-])c1)C(=O)O; Nle = CCCC[C@H](N)C(=O)O; 2Abz = Nc1ccccc1C(=O)O
Give just the number in %; leave the unit off.

Here is how some substances turned out for % cleavage MMP-9 t = 60 min.
SGRVANYFGKL ([2Abz]SGRVANYFGKL[Tyr(3-NO2)]-NH2) [LNK054]	100
RGRRVANPLGLAGSG ([2Abz]RGRRVANPLGLAGSG[Tyr(3-NO2)]-NH2) [LNK050]	100
SGRVAGLVG ([2Abz]SGRVAGLVG[Tyr(3-NO2)]-NH2) [LNK016]	43
SGRHSSKLQPLGYFGKL ([2Abz]SGRHSSKLQPLGYFGKL[Tyr(3-NO2)]-NH2) [LNK063]	93
HSSKLQYFGKL ([2Abz]HSSKLQYFGKL[Tyr(3-NO2)]-NH2) [LNK061]	0

Query: # query: % cleavage MMP-9 t = 60 min of entry SGRVLRKAGPANLVG ([2Abz]SGRVLRKAGPANLVG[Tyr(3-NO2)]-NH2) [LNK014]
Response: 99

Query: Name the recorded % cleavage MMP-9 t = 60 min for RGRRPLGYFGKL ([2Abz]RGRRPLGYFGKL[Tyr(3-NO2)]-NH2) [LNK057] .
Response: 100

Query: I am curious: what % cleavage MMP-9 t = 60 min value has been reported for RGRKVANLVG ([2Abz]RGRKVANLVG[Tyr(3-NO2)]-NH2) [LNK031] ?
Response: 100

Query: Would you mind telling me what % cleavage MMP-9 t = 60 min value was observed for RSSYRSL ([2Abz]RSSYRSL[Tyr(3-NO2)]-NH2) [LNK075] ?
Response: 5

Query: Param item = SGRVAPYMLQG ([2Abz]SGRVAPYMLQG[Tyr(3-NO2)]-NH2) [LNK042] ; retrieve measured % cleavage MMP-9 t = 60 min.
Response: 100

Query: Param item = RGRKSPQPLVD ([2Abz]RGRKSPQPLVD[Tyr(3-NO2)]-NH2) [LNK040] ; retrieve measured % cleavage MMP-9 t = 60 min.
Response: 69

Query: Please look up its % cleavage MMP-9 t = 60 min: SGRVAPQPLVD (not fully specified (N-terminus, C-terminus)) [LNK046]
Response: 74

Query: What measured % cleavage MMP-9 t = 60 min goes with RGRRHSSKLQ ([2Abz]RGRRHSSKLQ[Tyr(3-NO2)]-NH2) [LNK052] ?
Response: 0

Query: What does the record list as % cleavage MMP-9 t = 60 min for RGRKPY-Nle-LQG ([2Abz]RGRKPY[Nle]LQG[Tyr(3-NO2)]-NH2) [LNK036] ?
Response: 87

Query: # % cleavage MMP-9 t = 60 min lookup, item SSRGPYMLQG ([2Abz]SSRGPYMLQG[Tyr(3-NO2)]-NH2) [LNK022]
Response: 99

Query: Can you look up the measured % cleavage MMP-9 t = 60 min of RQRKVANLVG ([2Abz]RQRKVANLVG[Tyr(3-NO2)]-NH2) [LNK032] for me?
Response: 100

Query: I would be grateful if you could share the reported % cleavage MMP-9 t = 60 min for SSRGRRGPYMLQG ([2Abz]SSRGRRGPYMLQG[Tyr(3-NO2)]-NH2) [LNK021] .
Response: 98

Query: Please give the measured % cleavage MMP-9 t = 60 min for this substance: SGRPLGYFGKL ([2Abz]SGRPLGYFGKL[Tyr(3-NO2)]-NH2) [LNK056]
Response: 100

Query: Which % cleavage MMP-9 t = 60 min is reported for this substance? RGRRAANLVRPLGYFGKL ([2Abz]RGRRAANLVRPLGYFGKL[Tyr(3-NO2)]-NH2) [LNK060]
Response: 100

====

EXPERIMENTAL SYSTEM: Kallikrein-3 (Homo sapiens, UniProt P07288)
Sequence (P07288 25-261, species assumed): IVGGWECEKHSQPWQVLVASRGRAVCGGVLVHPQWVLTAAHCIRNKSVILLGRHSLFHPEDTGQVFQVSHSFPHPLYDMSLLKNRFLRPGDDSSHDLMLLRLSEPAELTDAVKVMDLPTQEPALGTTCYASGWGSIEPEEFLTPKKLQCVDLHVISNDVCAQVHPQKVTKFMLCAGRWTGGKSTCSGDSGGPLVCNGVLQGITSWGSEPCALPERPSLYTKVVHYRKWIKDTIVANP
PROCEDURE DETAILS: FRET peptide cleavage efficiency with Kallikrein-3
Format: biochemical
CONDITIONS USED: t = 3 h; peptide 200 uM, Kallikrein-3 2 μg/ml, 37° C., pH 8
Square brackets hold non-standard residues; d marks the D form. Ends that are not written are not given here. Tyr(3-NO2) = N[C@@H](Cc1ccc(O)c([N+](=O)[O-])c1)C(=O)O; 2Abz = Nc1ccccc1C(=O)O
Hi, to clarify the labels: true (1) covers Kallikrein-3 t = 3 h % cleavage from 40% upward, false (0) covers anything below 40%.

These recorded examples may help you get a feel for the data.
GSSYYSGA ([2Abz]GSSYYSGA[Tyr(3-NO2)]-NH2) [LNK079]	true (1)
RRLHYSL ([2Abz]RRLHYSL[Tyr(3-NO2)]-NH2) [LNK073]	true (1)
RSSYRSL ([2Abz]RSSYRSL[Tyr(3-NO2)]-NH2) [LNK075]	true (1)
KLYSSKQ ([2Abz]KLYSSKQ[Tyr(3-NO2)]-NH2) [LNK071]	true (1)

Kindly review the next substance as well.
Query: Is the recorded value of Kallikrein-3 t = 3 h % cleavage equal to or greater than 40% for this substance? KSKQHSL ([2Abz]KSKQHSL[Tyr(3-NO2)]-NH2) [LNK077]
Response: false (0)

====

Listing of entries alongside the reported % cleavage MMP-7 t = 120 min.
EXPERIMENTAL SYSTEM: MMP-7 (Homo sapiens)
Construct: purchased SIGMA CC1059
Sequence (P09237 95-267): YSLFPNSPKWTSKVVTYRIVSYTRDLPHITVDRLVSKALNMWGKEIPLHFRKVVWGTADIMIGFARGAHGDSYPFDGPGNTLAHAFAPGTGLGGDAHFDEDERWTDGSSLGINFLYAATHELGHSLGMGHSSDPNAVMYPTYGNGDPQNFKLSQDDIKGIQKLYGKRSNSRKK
PROCEDURE DETAILS: FRET peptide cleavage efficiency with MMP-7 (standard pH 7.5; also pH 6.5)
Assay type: biochemical
CONDITIONS USED: t = 120 min; standard conditions (Table 8)
Square brackets hold non-standard residues; d marks the D form. Ends that are not written are not given here. Tyr(3-NO2) = N[C@@H](Cc1ccc(O)c([N+](=O)[O-])c1)C(=O)O; 2Abz = Nc1ccccc1C(=O)O
Response body: numeric value in %, unit text excluded.

Query: Enter reported % cleavage MMP-7 t = 120 min observed with MMP-7 (Homo sapiens) for RGRKSPQPLVD ([2Abz]RGRKSPQPLVD[Tyr(3-NO2)]-NH2) [LNK040]
Response: 93

Query: For MMP-7 (Homo sapiens), provide % cleavage MMP-7 t = 120 min of RGRKPQPLVD ([2Abz]RGRKPQPLVD[Tyr(3-NO2)]-NH2) [LNK039] please.
Response: 96

Query: Missing value: % cleavage MMP-7 t = 120 min, MMP-7 (Homo sapiens), entry SGRVAPQPLVD (not fully specified (N-terminus, C-terminus)) [LNK046] . Fill in?
Response: 100

Query: Reported % cleavage MMP-7 t = 120 min for MMP-7 (Homo sapiens), given RGRRGP ([2Abz]RGRRGP[Tyr(3-NO2)]-NH2) [LNK048] ?
Response: 0

Query: Param readout= % cleavage MMP-7 t = 120 min; system= MMP-7 (Homo sapiens); entry= SGRVYMLQG ([2Abz]SGRVYMLQG[Tyr(3-NO2)]-NH2) [LNK044] ; returns value.
Response: 9
